target: Translocator protein (Rattus norvegicus)
Sequence (P16257 whole entry, looked up): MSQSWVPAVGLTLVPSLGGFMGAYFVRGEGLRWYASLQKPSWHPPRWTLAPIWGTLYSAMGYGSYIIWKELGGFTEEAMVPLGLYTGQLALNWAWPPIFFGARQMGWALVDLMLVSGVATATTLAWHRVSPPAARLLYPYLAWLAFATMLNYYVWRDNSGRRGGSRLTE
value_kind: log10(IC50) (log10 of the value in nM)
Reminder: these figures are log10 of reported IC50, in nM before transformation.

Identify measured log10(IC50) associated with CN(C(=O)/C=C1\c2nc3ccccc3cc2C(=O)N1c1ccccc1)c1ccc(Cl)cc1
1.00

Determine from records and report log10(IC50) for CN(C(=O)/C=C1\c2nc3ccccc3cc2C(=O)N1c1ccc(Cl)cc1)c1ccccc1
1.64

Look up and report measured log10(IC50) for this entry: C#CCN(C)C(=O)/C=C1\c2nc3ccccc3cc2C(=O)N1c1ccc(Cl)cc1
2.51

// Input: CN(C(=O)/C=C1\c2nc3ccccc3cc2C(=O)N1c1ccc(Cl)cc1)c1ccc(Cl)cc1 . Output its log10(IC50) only.
-0.21

Provide only the value of recorded log10(IC50) for CN(Cc1ccccc1)C(=O)/C=C1\c2nc3ccccc3cc2C(=O)N1c1ccc(Cl)cc1
1.41

Give log10(IC50) for CN(C(=O)/C=C1\c2nc3ccccc3cc2C(=O)N1c1ccc(Cl)cc1)c1ccc(O)cc1
1.87

Source of measurements: ChEMBL document CHEMBL1142386
